experimental_system: MMP-1 (Homo sapiens, UniProt P03956)
Construct: calbiochem cat
Sequence (P03956 100-469): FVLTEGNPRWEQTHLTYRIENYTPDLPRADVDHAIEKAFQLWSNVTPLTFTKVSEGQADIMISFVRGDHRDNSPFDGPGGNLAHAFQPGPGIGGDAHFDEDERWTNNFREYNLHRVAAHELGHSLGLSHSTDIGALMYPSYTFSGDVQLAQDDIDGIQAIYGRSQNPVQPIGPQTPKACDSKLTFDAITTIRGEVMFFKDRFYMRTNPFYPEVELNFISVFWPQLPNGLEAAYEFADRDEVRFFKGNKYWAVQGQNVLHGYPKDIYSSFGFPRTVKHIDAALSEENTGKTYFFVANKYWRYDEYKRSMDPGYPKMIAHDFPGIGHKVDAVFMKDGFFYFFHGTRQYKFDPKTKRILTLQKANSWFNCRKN
method_notes: Test 6 MMP-1 inhibition activity test
test_conditions: MMP-1 from human rheumatic synovium fibroblast, activated with AMPA
Method: Test 6 MMP-1 Inhibition Activity Test MMP-1 (stroma collagenase: EC3.4.24.7, human rheumatic synovium fibroblast, calbiochem cat. 444208) was activated with AMPA at 37° C. for 60 minutes. A test compound was preincubated with activated MMP-1 at 37° C. for 60 minutes in the reaction mixture containing 50 mM MOPS (pH 7.2), 10 mM aqueous calcium chloride solution, and 10 μM zinc chloride. […] The enzyme activity was measured by fluorescence intensity of Mca-Pro-Leu-Gly, and IC50 was calculated.
Below, each entry is listed alongside its reported IC50.

substance_smiles	IC50
CS(=O)(=O)c1ccc(Oc2ccc(S(=O)(=O)NCC(=O)NO)cc2)cc1	> 10 µM
CS(=O)(=O)c1ccc(Oc2ccc(S(=O)(=O)N(CC(=O)NO)Cc3ccncc3)cc2)cc1	> 10 µM
CCOC(=O)CN(CC(=O)NO)S(=O)(=O)c1ccc(Oc2ccc(S(C)(=O)=O)cc2)cc1	> 10 µM
CC(C)CN(C1(C(=O)NO)CCCC1)S(=O)(=O)c1ccc(Oc2ccc(S(C)(=O)=O)cc2)cc1	7.21 µM

###

experimental_system: MMP-2 (Homo sapiens, UniProt P08253)
Sequence (P08253 110-660): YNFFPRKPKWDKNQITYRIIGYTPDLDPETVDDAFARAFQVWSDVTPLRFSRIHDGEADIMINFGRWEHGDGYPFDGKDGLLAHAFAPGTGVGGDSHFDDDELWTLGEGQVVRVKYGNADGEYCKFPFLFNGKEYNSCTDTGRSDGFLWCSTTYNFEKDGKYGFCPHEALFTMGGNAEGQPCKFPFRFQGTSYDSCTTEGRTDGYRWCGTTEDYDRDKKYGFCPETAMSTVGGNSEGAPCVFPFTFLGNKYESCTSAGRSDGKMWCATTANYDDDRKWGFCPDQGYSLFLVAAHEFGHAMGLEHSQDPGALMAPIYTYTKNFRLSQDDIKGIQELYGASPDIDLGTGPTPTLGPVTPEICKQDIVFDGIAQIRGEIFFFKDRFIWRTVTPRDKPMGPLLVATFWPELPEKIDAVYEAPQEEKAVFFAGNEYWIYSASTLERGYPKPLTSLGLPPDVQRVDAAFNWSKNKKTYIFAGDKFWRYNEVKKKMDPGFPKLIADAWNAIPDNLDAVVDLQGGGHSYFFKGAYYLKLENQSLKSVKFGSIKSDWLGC
method_notes: Test 3 MMP-2 inhibition activity test (gelatinase activity assay kit)
test_conditions: activated human MMP-2, biotin labeled gelatin
pIC50: −log10 of the molar value.
Below, each entry is listed alongside its reported pIC50.

compound	pIC50
CCOC(=O)CN(C1(C(=O)NO)CCC1)S(=O)(=O)c1ccc(Oc2ccc(S(C)(=O)=O)cc2)cc1	< 7.00
CCOC(=O)CN(C1(C(=O)NO)CCCC1)S(=O)(=O)c1ccc(Oc2ccc(S(C)(=O)=O)cc2)cc1	5.68
CS(=O)(=O)c1ccc(Oc2ccc(S(=O)(=O)N(Cc3ccccc3)C3(C(=O)NO)CCOCC3)cc2)cc1	> 7.00
CCOC(=O)CCN(C1(C(=O)NO)CCOCC1)S(=O)(=O)c1ccc(Oc2ccc(S(C)(=O)=O)cc2)cc1	6.10
CC(C)OCCN(CC(=O)NO)S(=O)(=O)c1ccc(Oc2ccc(S(C)(=O)=O)cc2)cc1	< 7.00
COc1ccc(Oc2ccc(CC3Sc4ccc(C(=O)O)cc4N(CC(=O)NO)C3=O)cc2)cc1 (stereo not drawn) [compound 1, reference compound]	< 7.00

###

Below, each entry is listed alongside its reported pIC50.
experimental_system: MMP-3 (Homo sapiens, UniProt P08254)
Construct: C-terminal truncated cDNA in which the cDNA encodes human prostromelysin
Sequence (P08254 100-272 limits assumed): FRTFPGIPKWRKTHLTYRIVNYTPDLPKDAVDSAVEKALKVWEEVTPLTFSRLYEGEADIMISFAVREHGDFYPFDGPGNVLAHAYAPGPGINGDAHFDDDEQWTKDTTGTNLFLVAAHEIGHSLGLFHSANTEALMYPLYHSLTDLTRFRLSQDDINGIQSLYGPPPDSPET
method_notes: Test 1 Test on MMP-3 inhibiting activity (fluorogenic peptide substrate)
test_conditions: activated MMP-3, 37° C.; read-out: MMP-3 inhibition activity value
pIC50: −log10 of the molar value.
quantity_measured: pIC50

substance_smiles	test_value
CCOC(=O)CN(C1(C(=O)NO)CCC1)S(=O)(=O)c1ccc(Oc2ccc(S(C)(=O)=O)cc2)cc1	7.94
CC(C)CN(C1(C(=O)NO)CCCC1)S(=O)(=O)c1ccc(Oc2ccc(S(C)(=O)=O)cc2)cc1	7.67
COCCCN(CC(=O)NO)S(=O)(=O)c1ccc(Oc2ccc(S(C)(=O)=O)cc2)cc1	8.07
CCOCCN(C1(C(=O)NO)CCCC1)S(=O)(=O)c1ccc(Oc2ccc(S(C)(=O)=O)cc2)cc1	8.82
COCCN(CC(=O)NO)S(=O)(=O)c1ccc(Oc2ccc(S(C)(=O)=O)cc2)cc1	8.57
CS(=O)(=O)c1ccc(Oc2ccc(S(=O)(=O)N(Cc3ccccc3)C3(C(=O)NO)CCOCC3)cc2)cc1	7.80
CS(=O)(=O)c1ccc(Oc2ccc(S(=O)(=O)N(CCC(=O)O)C3(C(=O)NO)CCCC3)cc2)cc1	7.05

###

Below, each entry is listed alongside its reported pIC50.
experimental_system: MMP-9 (Homo sapiens)
Sequence (P14780 107-707 limits assumed): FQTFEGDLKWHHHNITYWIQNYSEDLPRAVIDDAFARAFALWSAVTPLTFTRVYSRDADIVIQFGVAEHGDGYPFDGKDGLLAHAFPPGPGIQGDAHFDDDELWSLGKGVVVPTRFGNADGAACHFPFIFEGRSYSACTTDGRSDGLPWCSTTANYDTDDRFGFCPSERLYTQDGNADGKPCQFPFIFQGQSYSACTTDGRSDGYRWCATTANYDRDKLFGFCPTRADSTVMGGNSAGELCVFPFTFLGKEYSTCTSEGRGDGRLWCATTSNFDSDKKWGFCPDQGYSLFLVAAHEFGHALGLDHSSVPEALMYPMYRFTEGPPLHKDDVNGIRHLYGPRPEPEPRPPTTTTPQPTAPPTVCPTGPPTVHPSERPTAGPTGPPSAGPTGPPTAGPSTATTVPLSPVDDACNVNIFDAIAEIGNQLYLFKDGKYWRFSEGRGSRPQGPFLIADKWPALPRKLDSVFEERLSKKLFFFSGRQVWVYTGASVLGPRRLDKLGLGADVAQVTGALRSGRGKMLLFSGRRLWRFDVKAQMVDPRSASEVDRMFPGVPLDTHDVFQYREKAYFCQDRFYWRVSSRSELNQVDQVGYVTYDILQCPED
method_notes: Test 4 MMP-9 inhibiting activity test (biotin labeled gelatin)
test_conditions: activated human MMP-9, biotin labeled gelatin; read-out: MMP-9 inhibition activity value
Procedure: Test 4 MMP-9 Inhibiting Activity Test […] A mixture of DMSO solution (2 μl) containing definite concentration of the compound, biotin labeled gelatin (188 μl) and activated MMP-9 solution (10 μl) was put on a 96 well-assay plate (protein nonabsorbance type), well agitated, and incubated at 37° C. for 1 hour. […] Then, ABTS solution (200 μl) was added thereto and after standing at room temperature for 40 minutes, furuorescence intensity was measured at 405 nm and IC50 was calculated. […]
pIC50: −log10 of the molar value.
quantity_measured: pIC50

compound	experimental_system	result_qualifier	test_value
CS(=O)(=O)c1ccc(Oc2ccc(S(=O)(=O)N(CCC(=O)O)CC(=O)NO)cc2)cc1	MMP-9 (Homo sapiens)	<	7.00
CC(C)CN(CC(=O)NO)S(=O)(=O)c1ccc(Oc2ccc(S(C)(=O)=O)cc2)cc1	MMP-9 (Homo sapiens)	<	7.00
CC(C)(C(=O)NO)N(Cc1ccccc1)S(=O)(=O)c1ccc(Oc2ccc(S(C)(=O)=O)cc2)cc1	MMP-9 (Homo sapiens)	=	5.17
CS(=O)(=O)c1ccc(Oc2ccc(S(=O)(=O)N(CCC(=O)O)C3(C(=O)NO)CCCC3)cc2)cc1	MMP-9 (Homo sapiens)	<	5.00
CS(=O)(=O)c1ccc(Oc2ccc(S(=O)(=O)N(CC(=O)NO)Cc3ccncc3)cc2)cc1	MMP-9 (Homo sapiens)	=	5.37
CCOC(=O)CN(C1(C(=O)NO)CCC1)S(=O)(=O)c1ccc(Oc2ccc(S(C)(=O)=O)cc2)cc1	MMP-9 (Homo sapiens)	<	7.00
CCOC(=O)CN(CC(=O)NO)S(=O)(=O)c1ccc(Oc2ccc(S(C)(=O)=O)cc2)cc1	MMP-9 (Homo sapiens)	=	5.85
CC(C)OCCN(CC(=O)NO)S(=O)(=O)c1ccc(Oc2ccc(S(C)(=O)=O)cc2)cc1	MMP-9 (Homo sapiens)	=	6.00
CCOCCN(C1(C(=O)NO)CCCC1)S(=O)(=O)c1ccc(Oc2ccc(S(C)(=O)=O)cc2)cc1	MMP-9 (Homo sapiens)	<	7.00
COCCN(CC(=O)NO)S(=O)(=O)c1ccc(Oc2ccc(S(C)(=O)=O)cc2)cc1	MMP-9 (Homo sapiens)	<	5.00
COc1ccc(Oc2ccc(CC3Sc4ccc(C(=O)O)cc4N(CC(=O)NO)C3=O)cc2)cc1 (stereo not drawn) [compound 1, reference compound]	MMP-9 (Homo sapiens)	<	7.00
CS(=O)(=O)c1ccc(Oc2ccc(S(=O)(=O)NCC(=O)NO)cc2)cc1	MMP-9 (Homo sapiens)	=	5.33

###

experimental_system: MMP-2 (Homo sapiens)
method_notes: Test 3 MMP-2 inhibition activity test (gelatinase activity assay kit)
test_conditions: activated human MMP-2, biotin labeled gelatin
pIC50: −log10 of the molar value.
Below, each entry is listed alongside its reported pIC50.

molecule	experimental_system	result_qualifier	pIC50
CCOCCN(C1(C(=O)NO)CCCC1)S(=O)(=O)c1ccc(Oc2ccc(S(C)(=O)=O)cc2)cc1 [Example 45]	MMP-2 (Homo sapiens)	<	7.00
CS(=O)(=O)c1ccc(Oc2ccc(S(=O)(=O)NCC(=O)NO)cc2)cc1 [Example 13]	MMP-2 (Homo sapiens)	=	6.05
CC(C)CN(C1(C(=O)NO)CCOCC1)S(=O)(=O)c1ccc(Oc2ccc(S(C)(=O)=O)cc2)cc1 [Example 15]	MMP-2 (Homo sapiens)	=	6.52
CS(=O)(=O)c1ccc(Oc2ccc(S(=O)(=O)N(CCC(=O)O)CC(=O)NO)cc2)cc1 [Example 36]	MMP-2 (Homo sapiens)	=	5.54

###

Below, each entry is listed alongside its reported pIC50.
experimental_system: MMP-9 (Homo sapiens)
method_notes: Test 4 MMP-9 inhibiting activity test (biotin labeled gelatin)
Assay type: biochemical
test_conditions: activated human MMP-9, biotin labeled gelatin; read-out: MMP-9 inhibition activity value
pIC50: −log10 of the molar value.

substance_smiles	pIC50
CS(=O)(=O)c1ccc(Oc2ccc(S(=O)(=O)N(CC(=O)O)CC(=O)NO)cc2)cc1	< 5.00
CCOC(=O)CN(C1(C(=O)NO)CCCC1)S(=O)(=O)c1ccc(Oc2ccc(S(C)(=O)=O)cc2)cc1	5.64
CS(=O)(=O)c1ccc(Oc2ccc(S(=O)(=O)NC3(C(=O)NO)CCC3)cc2)cc1	< 7.00
CCOC(=O)CCN(C1(C(=O)NO)CCCC1)S(=O)(=O)c1ccc(Oc2ccc(S(C)(=O)=O)cc2)cc1	< 7.00
